These data points were gathered from patent US20220267462A1.

# SYSTEM_TESTED: T1, human EpCAM protein (human, UniProt P16422 24-265, biotinylated in the Octet assays (site not stated))
# T1 construct: also called hu EpCAM; biotinylated human EpCAM protein
# T1 sequence: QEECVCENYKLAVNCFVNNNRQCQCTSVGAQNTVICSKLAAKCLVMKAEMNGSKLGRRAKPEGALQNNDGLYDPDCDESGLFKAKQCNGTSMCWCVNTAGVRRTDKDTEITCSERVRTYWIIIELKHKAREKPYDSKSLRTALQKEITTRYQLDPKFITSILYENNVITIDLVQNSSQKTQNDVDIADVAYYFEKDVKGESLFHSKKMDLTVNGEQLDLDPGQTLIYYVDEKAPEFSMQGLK
# MEASUREMENT_DESCRIPTION: colorimetric ELISA
# Description: A phage display library for expression of heavy variable antibody domains was constructed from circulating B cells. See van der Linden, de Geus, Stok, Bos, van Wassenaar, Verrips, and Frenken. 2000. J Immunol Methods 240:185-195.
OBSERVATION_TYPE: Human EpCAM/Control

Sample answers from the record:
- BINDER: "EPL90 (VHH, llama anti-EpCAM heavy chain only single domain antibody; tested as E. coli periplasmic extract) VHH: QVQLQESGGGLVQAGGSLRLSCAASGFIFRAASMAWYRQSPGNERELVASISSGAFTNYADSVKARFTISRDNAKNTVYLQMNSLKPEDTAVYFCGATFLRSDGHHTINGQGTQVTVSS"
  OBSERVED_VALUE: 10
- BINDER: "EPL55 (VHH) VHH: QVQLQESGGGLVQAGGSLRLSCAASGDTFLRYAMGWFRQAPGKEREFVAAITWNGGNTDYAGSLKGRFTISRDNTKNTVYLQMNSLKPEDTAVYYCAADLTFGLASSHYQYDYWGQGTQVTVSS"
  OBSERVED_VALUE: 5
- BINDER: "EPL74 (VHH) VHH: QVQLQESGGGLVQAGGSLRLSCAASGSIFGINAMGWYRQAPGKQRESVAFITIGGNTNYLDSVKGRFTISRDNAKNTVYLQMNGLKPEDTAVYYCNTNPPLILTAGGLYWGQGTQVTVSS"
  OBSERVED_VALUE: 10

a. EPL126 (VHH) VHH: QVQLQESGGGLVQAGGSLRLSCAASGFIFRAASMGWYRQSPGNERELVATINSGGFTNYADSVKGRFTISRDNAKNTGYLQMNSLKPEDTAVYFCAATFLRSDGQPPIWGQGTQVTVSS
b. EPL2 (VHH) VHH: QVQLQESGGGLVQPGGSLRLSCAASESISSFIAVGWYRQAPGKERELVAGINRSGFTYYTDSVKGRFSISRDNAKNTVLLQMTSLKPEDTAVYYCNAGGLYFSNAYTQGDYWGQGTQVTVSS
c. EPL136 (VHH) VHH: QVQLQESGGGLVQPGGSLRLSCAASGDTFLRYAMGWFRQAPGKEREFVAAITWNGGNTDYAGSLKGRFTISRDNTKNTVYLQMNSLKPEDTAVYYCAADLTFGLASSHYQYDYWGQGTQVTVSS
d. EPL83 (VHH) VHH: QVQLQESGGGLVQAGGSLRLSCAVSGSIFSLNTLAWYRQAPGRQRDLIARITGGGTTVYADSVKGRFTISRDNAKNTVYLQMNSLKPEDTAVYYCNLMVRHPSGSTYEYWGQGTQVTVSS
Input: Give the ascending ranking of the items by reported Human EpCAM/Control. List the labels, following the order given in the request.
Output: d, a, c, b
